System: 233499-124-R-J3-PDC complex spheroid growth;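 note: spheroids exposed to agents for seven days before reading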
Assay: Anticancer human tumor 233499-124-R-J3-PDC patient-derived colon adenocarcinoma cell line growth inhibition [AhR]
Settings: second compound 1 µM; first compound 0.316 µM; hits give low values

{"columns": ["compound", "viability, T/C [%]"],
 "data": [
  ["CC(C)c1c(-c2ccccc2)nc2c(C#N)c[nH]n2c1=O + CC(CO)NC(=O)c1cc(-c2ccc(Cl)cc2)nn(-c2cnn(C)c2)c1=O", 98],
  ["COc1cc(C2c3cc4c(cc3C(OC3OC5COC(C)OC5C(O)C3O)C3COC(=O)C23)OCO4)cc(OC)c1O (stereo unspecified) + Cc1cncc(-c2nc(NCCc3c[nH]c4ccccc34)c3ncn(C(C)C)c3n2)c1", 77.3],
  ["Nc1ccccc1NC(=O)c1ccc(CNC(=O)OCc2cccnc2)cc1 + Cc1cncc(-c2nc(NCCc3c[nH]c4ccccc34)c3ncn(C(C)C)c3n2)c1", 71.9],
  ["O=C(c1cc(Cc2n[nH]c(=O)c3ccccc23)ccc1F)N1CCN(C(=O)C2CC2)CC1 + CC(CO)NC(=O)c1cc(-c2ccc(Cl)cc2)nn(-c2cnn(C)c2)c1=O", 102],
  ["CC1COCCN1c1cc(C2(S(C)(=N)=O)CC2)nc(-c2ccnc3[nH]ccc23)n1 (stereo unspecified) + Cc1ccccc1N=Nc1ccc(NC(=O)c2ccnn2C)c(C)c1", 104],
  ["COc1cc(Nc2ncc3c(n2)-c2ccc(Cl)cc2C(c2c(F)cccc2OC)=NC3)ccc1C(=O)O + Cc1cncc(-c2nc(NCCc3c[nH]c4ccccc34)c3ncn(C(C)C)c3n2)c1", 77.8]
]}
